# assay-notes: qHTS for differential inhibitors of proliferation of Plasmodium falciparum line 3D7 (AID 1876)
# condition: P. falciparum 3D7 proliferation inhibition; series mostly up to 28.7 µM
Results filed as inconclusive are left out. The source made the active and inactive calls. Calls come from the whole dose curve; as a rule, active = well fitted curve in the direction sought with a large enough effect; inconclusive = small, poorly fitted or top-dose-only effect, or another doubt; inactive = no such curve, though single readings can be large or run the other way.
// one of t for active, f for inactive, no free text

Sample answers from the record:
Which outcome was assigned to NC(=O)c1ccccc1 in this test?
f

Which outcome was assigned to O[Si](CCCN1CCCCC1)(c1ccc(F)cc1)C1CCCCC1 (stereo not given) in this test?
t

Which outcome was assigned to NC1C=CC=C(C(=O)O)C1 (stereo not given) in this test?
f

Which outcome was assigned to CCCCOc1cc(CC2CNC(=O)N2)ccc1OC (stereo not given) in this test?
f

Which outcome was assigned to NCC(O)(CS(=O)(=O)O)c1ccc(Cl)cc1 (stereo not given) in this test?
f

New cases:
Which outcome was assigned to C[N+](C)(C)CC=O in this test?
f

Which outcome was assigned to CC(=O)N[C@@H](Cc1c[nH]c2ccccc12)C(=O)OCc1cc(C(F)(F)F)cc(C(F)(F)F)c1 in this test?
f

Which outcome was assigned to CO/N=C(\C(=O)N[C@@H]1C(=O)N2C(C(=O)O)=C(CSc3nc(=O)c(O)nn3C)CSC12)c1csc(N)n1 (stereo not given in full) in this test?
f

Which outcome was assigned to NCCCNCCCCNCCCN in this test?
f

Which outcome was assigned to CCCCCCCCCCC/C=C\C(C)(C)/C=C\CCCC(=O)O in this test?
f
